Cited source: the supplement of paper PMC9112550

System: Escherichia coli TOP10;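 also: peptides expressed intracellularly from a pBAD plasmid library in pooled LB shake-flask culture, induced with 0.3% L-arabinose, DNA abundance read by NGS, three biological replicates, DESeq2 with apeglm shrinkage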
procedure summary: shrunken log2 fold change of peptide-encoding DNA abundance (4.5 h post-induction vs induction); higher = less antimicrobial activity (less host growth inhibition)
experimental setup: time post-induction: 4.5 h; library: site-saturation at positions 5, 18, 19, 20
Classify as follows. Reported shrunken log2 fold change greater than or equal to 0.02: satisfied. Reported shrunken log2 fold change below: not satisfied.

Q: Does the sequence RRIRKRPPRLPRPRPRPCLVPRP have recorded shrunken log2 fold change that is 0.02 or more?
Result: satisfied

Q: Okay, and RRIRYRPPRLPRPRPRPYACPRP ?
Result: not satisfied

Q: Likewise for RRIRLRPPRLPRPRPRPHMSPRP ?
Result: not satisfied

Q: Also RRIRYRPPRLPRPRPRPRPTPRP ?
Result: satisfied

Q: // same read-out, input: RRIRPRPPRLPRPRPRPFWPPRP
Result: satisfied

Q: Follow-up item: RRIRPRPPRLPRPRPRPHTWPRP
Result: not satisfied

Q: Okay, and RRIRLRPPRLPRPRPRPYLLPRP ?
Result: not satisfied

Q: Entry RRIRIRPPRLPRPRPRPCTNPRP please
Result: not satisfied

Q: Same question for RRIRTRPPRLPRPRPRPEAPPRP please.
Result: satisfied

Q: Continue with RRIRSRPPRLPRPRPRPAMAPRP
Result: satisfied

Q: Proceed to RRIRWRPPRLPRPRPRPWIGPRP
Result: not satisfied

Q: What about this sequence? RRIRRRPPRLPRPRPRPLWYPRP
Result: not satisfied

Q: Now try RRIRVRPPRLPRPRPRPGFNPRP .
Result: not satisfied

Q: Try this sequence next: RRIRGRPPRLPRPRPRPLKGPRP
Result: not satisfied

Q: And what about the sequence RRIRRRPPRLPRPRPRPKFCPRP ?
Result: satisfied
